system: 883617-216-R-J1-PDC complex spheroids, growth, % test/control; assay: Anticancer human tumor 883617-216-R-J1-PDC patient-derived bladder carcinoma cell line growth inhibition [AhR]; details: second compound 0.1 µM; first compound 3 µM; active compounds read low;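 further: exposure lasted 7 days after dosing on day 3 of spheroid growth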
measured_property: viability, T/C

Request body: readout viability, T/C, system 883617-216-R-J1-PDC complex spheroids, growth, % test/control, query CCN(c1cc(-c2ccc(CN3CCOCC3)cc2)cc(C(=O)NCc2c(C)cc(C)[nH]c2=O)c1C)C1CCOCC1 + CC(CO)NC(=O)c1cc(-c2ccc(Cl)cc2)nn(-c2cnn(C)c2)c1=O . Return the value.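 Further: exposure lasted 7 days after dosing on day 3 of spheroid growth.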
112%

Request body: readout viability, T/C, system 883617-216-R-J1-PDC complex spheroids, growth, % test/control, query CCN(c1cc(-c2ccc(CN3CCOCC3)cc2)cc(C(=O)NCc2c(C)cc(C)[nH]c2=O)c1C)C1CCOCC1 + Cc1ccccc1N=Nc1ccc(NC(=O)c2ccnn2C)c(C)c1 . Return the value.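 Further: exposure lasted 7 days after dosing on day 3 of spheroid growth.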
84.3%

Hi team, please reply with viability, T/C for each item in this list.
1. CCN(c1cc(-c2ccc(CN3CCOCC3)cc2)cc(C(=O)NCc2c(C)cc(C)[nH]c2=O)c1C)C1CCOCC1 + Cc1cncc(-c2nc(NCCc3c[nH]c4ccccc34)c3ncn(C(C)C)c3n2)c1
2. O=C(C=Cn1cnc(-c2cc(C(F)(F)F)cc(C(F)(F)F)c2)n1)NNc1cnccn1 + Cc1ccccc1N=Nc1ccc(NC(=O)c2ccnn2C)c(C)c1

["91.6%", "34.4%"]

Hi team, please reply with viability, T/C for each item in this list.
1. O=C(C=Cn1cnc(-c2cc(C(F)(F)F)cc(C(F)(F)F)c2)n1)NNc1cnccn1 + CC(CO)NC(=O)c1cc(-c2ccc(Cl)cc2)nn(-c2cnn(C)c2)c1=O
2. O=C(C=Cn1cnc(-c2cc(C(F)(F)F)cc(C(F)(F)F)c2)n1)NNc1cnccn1 + Cc1cncc(-c2nc(NCCc3c[nH]c4ccccc34)c3ncn(C(C)C)c3n2)c1

29.7%
42.5%
